Hi there, I'd appreciate the recorded Ratio Ki for every entry that follows.
EXPERIMENT DESCRIPTION: Selectivity for rat CB1 receptor over mouse CB2 receptor
Give bare numbers.

STRUCTURE SMILES STRING | MEASUREMENT NAME | VALUE
CCCCCC#Cc1cc(O)c2c(c1)OC(C)(C)[C@@H]1CC=C(C)C[C@@H]21 | Ratio Ki | 0.2
CC1=CC[C@@H]2[C@@H](C1)c1c(O)cc(C3(C#N)CCCCC3)cc1OC2(C)C | Ratio Ki | 2.1
C=C(C)[C@@H]1CCC(C)=C[C@H]1c1c(O)cc(C2(C#N)CCCC2)cc1O | Ratio Ki | 2.4
CC1=CC[C@@H]2[C@@H](C1)c1c(O)cc(C3(C#N)CCCC3)cc1OC2(C)C | Ratio Ki | 1.1

Ratio Ki for `C=C(C)[C@@H]1CCC(C)=C[C@H]1c1c(O)cc(-c2cccc3ccccc23)cc1O` is 3.4
